B1: RPS21 (parent)
chain: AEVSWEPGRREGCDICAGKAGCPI

Variants of: B1
Assay: protein stability index of a GFP-peptide fusion (GPS, HEK-293T) (PSI 1-6); higher = more stable;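 also: lentivirally expressed fusions sorted by FACS into six bins by GFP to DsRed ratio, PSI derived from sequencing read proportions per bin multiplied by bin number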
Details: c terminus: a fixed tail appended
readout-name: protein stability index
# respond with the number and nothing more

(Q) Fill blank: measured protein stability index of the variant AEVSTEPGRREGCDICAGKAGCPI [W5T] is ____.
(A) 4.04
